B1: RHOBTB3 (parent)
chain: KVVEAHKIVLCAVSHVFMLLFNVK

Variants of: B1
experimental-protocol: protein stability index of a GFP-peptide fusion (GPS, HEK-293T) (PSI 1-6); higher = more stable;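 also: lentivirally expressed fusions sorted by FACS into six bins by GFP to DsRed ratio, PSI derived from sequencing read proportions per bin multiplied by bin number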
condition-parameters: c terminus: a fixed tail appended
measurement-kind: protein stability index
Keep the answer to the number alone.

// protein stability index lookup, variant = `KVVEVHKIVLCAVSHVFMLLFNVK` , result: 2.48

// protein stability index lookup, variant = `GVVEAHKIVLCAVSHVFMLLFNVK` , result: 2.31

// protein stability index lookup, variant = `KVVEAHKIVLCAVSHVSMLLFNVK` , result: 2.33

// protein stability index lookup, variant = `KVVEAHKIVLCAPSHVFMLLFNVK` , result: 2.59

// protein stability index lookup, variant = `KVVEACKIVLCAVSHVFMLLFNVK` , result: 2.58

// protein stability index lookup, variant = `KVVEAHKIVICAVSHVFMLLFNVK` , result: 2.64

// protein stability index lookup, variant = `KVVEAHKIVLCAVSHVFMLLMNVK` , result: 3.68

// protein stability index lookup, variant = `KVVEMHKIVLCAVSHVFMLLFNVK` , result: 3.42

// protein stability index lookup, variant = `KVVEAHKIVLCAVSHVFMLLFNKK` , result: 3.66

// protein stability index lookup, variant = `KVVEGHKIVLCAVSHVFMLLFNVK` , result: 3.1

// protein stability index lookup, variant = `KVVEAHKIVLGAVSHVFMLLFNVK` , result: 2.26

// protein stability index lookup, variant = `KVVEAHKIVLCAVKHVFMLLFNVK` , result: 2.65

// protein stability index lookup, variant = `KVVEAHKIVKCAVSHVFMLLFNVK` , result: 2.13

// protein stability index lookup, variant = `KVVEAHKIVLCAVSHVFMYLFNVK` , result: 2.59

// protein stability index lookup, variant = `KVVEAHKIVLCAKSHVFMLLFNVK` , result: 3.18

// protein stability index lookup, variant = `KVVEAHKIVLCAVSHVFMLLYNVK` , result: 2.14

// protein stability index lookup, variant = `KVVEAHKIVLCAVTHVFMLLFNVK` , result: 2.95

// protein stability index lookup, variant = `KVEEAHKIVLCAVSHVFMLLFNVK` , result: 1.82

// protein stability index lookup, variant = `KVVEAHKIVLCASSHVFMLLFNVK` , result: 2.92

// protein stability index lookup, variant = `KVVEAHKIVDCAVSHVFMLLFNVK` , result: 2.5

// protein stability index lookup, variant = `KVVEAHPIVLCAVSHVFMLLFNVK` , result: 2.02

// protein stability index lookup, variant = `KVVAAHKIVLCAVSHVFMLLFNVK` , result: 2.24

// protein stability index lookup, variant = `KVVEAEKIVLCAVSHVFMLLFNVK` , result: 2.21

// protein stability index lookup, variant = `KVVEAHKIVLCAYSHVFMLLFNVK` , result: 2.62

// protein stability index lookup, variant = `KVVEAHKIVLCAVSHVFMLLFRVK` , result: 2.69

// protein stability index lookup, variant = `KVVEAHKIVLCAVSHVFELLFNVK` , result: 2.48

// protein stability index lookup, variant = `KVVEAHKIVLCAVSHVFMLLHNVK` , result: 2.51

// protein stability index lookup, variant = `KVVEAHKIVLCCVSHVFMLLFNVK` , result: 2.29

// protein stability index lookup, variant = `KVVEAHKIVLMAVSHVFMLLFNVK` , result: 2.26

// protein stability index lookup, variant = `KVVEAHKIVLNAVSHVFMLLFNVK` , result: 1.88

// protein stability index lookup, variant = `KVVEAFKIVLCAVSHVFMLLFNVK` , result: 2.13

// protein stability index lookup, variant = `KVVEAHWIVLCAVSHVFMLLFNVK` , result: 2.34

// protein stability index lookup, variant = `KGVEAHKIVLCAVSHVFMLLFNVK` , result: 2.64

// protein stability index lookup, variant = `KVVEAHKIVLCAVFHVFMLLFNVK` , result: 2.8

// protein stability index lookup, variant = `KVVEAHKIVLCAVRHVFMLLFNVK` , result: 1.41

// protein stability index lookup, variant = `KVVWAHKIVLCAVSHVFMLLFNVK` , result: 1.42

// protein stability index lookup, variant = `KVVEAHKIVLCAVSHDFMLLFNVK` , result: 2.39

// protein stability index lookup, variant = `KVVEAHKIVLCAVSNVFMLLFNVK` , result: 3.41

// protein stability index lookup, variant = `KVVEAHKIVLCAVQHVFMLLFNVK` , result: 1.94

// protein stability index lookup, variant = `KVVEAHKIVLCAVSHVFMLMFNVK` , result: 2.63

// protein stability index lookup, variant = `KVVEAHKIPLCAVSHVFMLLFNVK` , result: 2.36

// protein stability index lookup, variant = `KVVEAHKIVLCAHSHVFMLLFNVK` , result: 2.36

// protein stability index lookup, variant = `KVVEAHKIVLQAVSHVFMLLFNVK` , result: 2.37

// protein stability index lookup, variant = `KVVEAHKHVLCAVSHVFMLLFNVK` , result: 2.52

// protein stability index lookup, variant = `KVVEAHKIVLCAVSHVFMLLFNVE` , result: 3.19

// protein stability index lookup, variant = `KVVEAHKIVLCAVSHVFMLLFNRK` , result: 3.19

// protein stability index lookup, variant = `KVVEAHKIVLCAVSDVFMLLFNVK` , result: 3.14

// protein stability index lookup, variant = `KDVEAHKIVLCAVSHVFMLLFNVK` , result: 2.57

// protein stability index lookup, variant = `KVVEAHKIVLCPVSHVFMLLFNVK` , result: 2.73

// protein stability index lookup, variant = `KVVEAHKIVLCAVSHVFMLLFTVK` , result: 4.37

// protein stability index lookup, variant = `KVVEAHKIVLCAVSHVFMLVFNVK` , result: 2.42

// protein stability index lookup, variant = `KVVEAHEIVLCAVSHVFMLLFNVK` , result: 2.9

// protein stability index lookup, variant = `KVVEAWKIVLCAVSHVFMLLFNVK` , result: 2.24

// protein stability index lookup, variant = `KVVEAHKIVLCAVSHVAMLLFNVK` , result: 2.4

// protein stability index lookup, variant = `KKVEAHKIVLCAVSHVFMLLFNVK` , result: 1.62

// protein stability index lookup, variant = `KVVEAHKIVLCAVSHVFMLLGNVK` , result: 4.01

// protein stability index lookup, variant = `KVVEAHKIVLCAVSHVDMLLFNVK` , result: 2.52

// protein stability index lookup, variant = `KVVEAHKIVGCAVSHVFMLLFNVK` , result: 3.06

// protein stability index lookup, variant = `KVVEAHKIVLCAVSHVFMLLFNVV` , result: 3.19

// protein stability index lookup, variant = `KVVEAHKIVLCAVSHVFMLLFNVT` , result: 2.95

// protein stability index lookup, variant = `KVVEAHKIVLKAVSHVFMLLFNVK` , result: 1.75

// protein stability index lookup, variant = `KVVEAHKIKLCAVSHVFMLLFNVK` , result: 3.01

// protein stability index lookup, variant = `KVVEAHKIVLCAVSHVFMLLFNVL` , result: 2.21

// protein stability index lookup, variant = `KVVEAHKIVLLAVSHVFMLLFNVK` , result: 2.24

// protein stability index lookup, variant = `KVVEAPKIVLCAVSHVFMLLFNVK` , result: 2.4

// protein stability index lookup, variant = `KVVEAHKFVLCAVSHVFMLLFNVK` , result: 2.48

// protein stability index lookup, variant = `KVVEAHKIVLCAVSHVFMPLFNVK` , result: 2.31

// protein stability index lookup, variant = `KVVEAHKIVLCVVSHVFMLLFNVK` , result: 2.57

// protein stability index lookup, variant = `KVVEAHKDVLCAVSHVFMLLFNVK` , result: 2.04
